Readings of activity coefficient for the listed compounds
- assay notes: activity coefficient (dimensionless); of the first substance listed, at infinite dilution; xn = mol fraction of the nth substance listed
- test parameters: 313.15 K; 100 kPa; Liquid; Chromatography; x1 = 0
Just the number, please, no unit after it.

c1ccccc1 [benzene] + CCn1cc[n+](C)c1.COCCOCCOS(=O)(=O)[O-]	2.33
CCCO [propan-1-ol] + CCn1cc[n+](C)c1.COCCOCCOS(=O)(=O)[O-]	0.989
CCCCC [pentane] + CCn1cc[n+](C)c1.COCCOCCOS(=O)(=O)[O-]	65.6

Data request: Need activity coefficient of CC(C)=O [acetone] + CCn1cc[n+](C)c1.COCCOCCOS(=O)(=O)[O-] , thanks.
Data returned: 1.46

Data request: What do you get for C1CCCC1 [cyclopentane] + CCn1cc[n+](C)c1.COCCOCCOS(=O)(=O)[O-] ?
Data returned: 26

Data request: What do you get for CO [methanol] + CCn1cc[n+](C)c1.COCCOCCOS(=O)(=O)[O-] ?
Data returned: 0.392

Data request: What do you get for C=CCCCC [hex-1-ene] + CCn1cc[n+](C)c1.COCCOCCOS(=O)(=O)[O-] ?
Data returned: 44.7

Data request: What do you get for C1CCCCCCC1 [cyclooctane] + CCn1cc[n+](C)c1.COCCOCCOS(=O)(=O)[O-] ?
Data returned: 79.8

Data request: What do you get for C#CCCCCCC [1-octyne] + CCn1cc[n+](C)c1.COCCOCCOS(=O)(=O)[O-] ?
Data returned: 16.7

* * *

Readings of activity coefficient for the listed compounds
- assay notes: activity coefficient (dimensionless); of the first substance listed, at infinite dilution; xn = mol fraction of the nth substance listed
- test parameters: 308.15 K; 100 kPa; Liquid; Chromatography; x1 = 0
Just the number, please, no unit after it.

Worked set:
C#CCCCC [1-hexyne] + CCn1cc[n+](C)c1.COCCOCCOS(=O)(=O)[O-]	6.05
CCCCC [pentane] + CCn1cc[n+](C)c1.COCCOCCOS(=O)(=O)[O-]	65.8
CC(C)=O [acetone] + CCn1cc[n+](C)c1.COCCOCCOS(=O)(=O)[O-]	1.42
C#CCCC [1-pentyne] + CCn1cc[n+](C)c1.COCCOCCOS(=O)(=O)[O-]	3.62
CCCO [propan-1-ol] + CCn1cc[n+](C)c1.COCCOCCOS(=O)(=O)[O-]	1.01
CO [methanol] + CCn1cc[n+](C)c1.COCCOCCOS(=O)(=O)[O-]	0.39
Cc1ccccc1 [toluene] + CCn1cc[n+](C)c1.COCCOCCOS(=O)(=O)[O-]	4.43
C1CCCC1 [cyclopentane] + CCn1cc[n+](C)c1.COCCOCCOS(=O)(=O)[O-]	27.1

Data request: Need activity coefficient of CCc1ccccc1 [ethylbenzene] + CCn1cc[n+](C)c1.COCCOCCOS(=O)(=O)[O-] , thanks.
Data returned: 8.04

Data request: What do you get for C=CCCCCC [1-heptene] + CCn1cc[n+](C)c1.COCCOCCOS(=O)(=O)[O-] ?
Data returned: 71.3

Data request: What do you get for C=CCCCCCC [oct-1-ene] + CCn1cc[n+](C)c1.COCCOCCOS(=O)(=O)[O-] ?
Data returned: 114

Data request: What do you get for C=CCCCC [hex-1-ene] + CCn1cc[n+](C)c1.COCCOCCOS(=O)(=O)[O-] ?
Data returned: 45.6

Data request: What do you get for CCC(C)=O [butanone] + CCn1cc[n+](C)c1.COCCOCCOS(=O)(=O)[O-] ?
Data returned: 2.33

* * *

Readings of activity coefficient for the listed molecules
- assay notes: activity coefficient (dimensionless); of the first substance listed, at infinite dilution; xn = mol fraction of the nth substance listed
- test parameters: 313.15 K; 100 kPa; Liquid; Chromatography; x1 = 0
Just the number, please, no unit after it.

CCCCCC [hexane] + CCn1cc[n+](C)c1.COCCOCCOS(=O)(=O)[O-]	102
C#CCCCCC [1-heptyne] + CCn1cc[n+](C)c1.COCCOCCOS(=O)(=O)[O-]	9.76
CC1CCCCC1 [methylcyclohexane] + CCn1cc[n+](C)c1.COCCOCCOS(=O)(=O)[O-]	70.6
CCc1ccccc1 [ethylbenzene] + CCn1cc[n+](C)c1.COCCOCCOS(=O)(=O)[O-]	8.04

Now turn to the next molecule.
Data request: Need activity coefficient of C=CCCCCCCC [1-nonene] + CCn1cc[n+](C)c1.COCCOCCOS(=O)(=O)[O-] , thanks.
Data returned: 168

* * *

- assay notes: activity coefficient (dimensionless); of the first substance listed, at infinite dilution; xn = mol fraction of the nth substance listed
- test parameters: 333.15 K; 100 kPa; Liquid; Chromatography; x1 = 0
reported metric: activity coefficient
Just the number, please, no unit after it.

Data request: Need activity coefficient of C1CCCCCC1 [cycloheptane] + CCn1cc[n+](C)c1.COCCOCCOS(=O)(=O)[O-] , thanks.
Data returned: 50.6

Data request: What do you get for C=CCCCCC [1-heptene] + CCn1cc[n+](C)c1.COCCOCCOS(=O)(=O)[O-] ?
Data returned: 65.6

Data request: What do you get for CCCCCCCC [octane] + CCn1cc[n+](C)c1.COCCOCCOS(=O)(=O)[O-] ?
Data returned: 202

Data request: What do you get for C=CCCC [1-pentene] + CCn1cc[n+](C)c1.COCCOCCOS(=O)(=O)[O-] ?
Data returned: 25.4

Data request: What do you get for C1CCCCCCC1 [cyclooctane] + CCn1cc[n+](C)c1.COCCOCCOS(=O)(=O)[O-] ?
Data returned: 68.2

* * *

- assay notes: activity coefficient (dimensionless); of the first substance listed, at infinite dilution; xn = mol fraction of the nth substance listed
- test parameters: 308.15 K; 100 kPa; Liquid; Chromatography; x1 = 0
Readings of activity coefficient for the listed compounds
Just the number, please, no unit after it.

Worked set:
C#CCCCCCC [1-octyne] + CCn1cc[n+](C)c1.COCCOCCOS(=O)(=O)[O-]	16.4
CCCCCCCC [octane] + CCn1cc[n+](C)c1.COCCOCCOS(=O)(=O)[O-]	215
C1CCCCC1 [cyclohexane] + CCn1cc[n+](C)c1.COCCOCCOS(=O)(=O)[O-]	45.4
C=CCCCCCCC [1-nonene] + CCn1cc[n+](C)c1.COCCOCCOS(=O)(=O)[O-]	168
CCO [ethanol] + CCn1cc[n+](C)c1.COCCOCCOS(=O)(=O)[O-]	0.719

Now turn to the next compound.
Data request: Need activity coefficient of CCCCCCC [heptane] + CCn1cc[n+](C)c1.COCCOCCOS(=O)(=O)[O-] , thanks.
Data returned: 158

* * *

- assay notes: activity coefficient (dimensionless); of the first substance listed, at infinite dilution; xn = mol fraction of the nth substance listed
- test parameters: 333.15 K; 100 kPa; Liquid; Chromatography; x1 = 0
Readings of activity coefficient for the listed molecules
Just the number, please, no unit after it.

Worked set:
CCCCCCC [heptane] + CCn1cc[n+](C)c1.COCCOCCOS(=O)(=O)[O-]	139
CCCCC [pentane] + CCn1cc[n+](C)c1.COCCOCCOS(=O)(=O)[O-]	59
C#CCCCCC [1-heptyne] + CCn1cc[n+](C)c1.COCCOCCOS(=O)(=O)[O-]	10.3
CC1CCCCC1 [methylcyclohexane] + CCn1cc[n+](C)c1.COCCOCCOS(=O)(=O)[O-]	62.3

Data request: Need activity coefficient of CCCCCC [hexane] + CCn1cc[n+](C)c1.COCCOCCOS(=O)(=O)[O-] , thanks.
Data returned: 85.7

* * *

- assay notes: activity coefficient (dimensionless); of the first substance listed, at infinite dilution; xn = mol fraction of the nth substance listed
- test parameters: 333.15 K; 100 kPa; Liquid; Chromatography; x1 = 0
reported metric: activity coefficient
Just the number, please, no unit after it.

Worked set:
CCCO [propan-1-ol] + CCn1cc[n+](C)c1.COCCOCCOS(=O)(=O)[O-]	0.913
C#CCCCCCC [1-octyne] + CCn1cc[n+](C)c1.COCCOCCOS(=O)(=O)[O-]	17.4
CCc1ccccc1 [ethylbenzene] + CCn1cc[n+](C)c1.COCCOCCOS(=O)(=O)[O-]	8.17
CO [methanol] + CCn1cc[n+](C)c1.COCCOCCOS(=O)(=O)[O-]	0.369

Data request: Need activity coefficient of CCC(C)=O [butanone] + CCn1cc[n+](C)c1.COCCOCCOS(=O)(=O)[O-] , thanks.
Data returned: 2.42
